- Tested on: anti collagen antibodies induced arthritis (ACAIA)
- assay_procedure: Anti collagen antibodies induced arthritis (ACAIA) in mice, intra-articular treatment: paw thickness, arthritis clinical score, body weight;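 note: mouse arthritis induced by IV anti-collagen mAb on day 0 plus IP LPS on day 4, with body weight, caliper paw thickness and 0-4 paw score tracked against a day 0 baseline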
- experimental_parameters: BETi1 10 mg/kg IA (Group 2); Av
endpoint_name: Weight per day, Day 12
Could you kindly put the unit after your number?

Give its Weight per day, Day 12 value. Item: Cn1cc(-c2cccc(O)c2Oc2ccccc2)c2cc[nH]c2c1=O [BETi1] 20.2 g

----------
- assay_procedure: Toxicokinetics in dogs after intra-articular injection: plasma concentrations
- Format: in vivo, Beagle dogs
- experimental_parameters: both sexes, Beagle, dog, plasma, other: intra-articular injection, 7.5 mg/animal; 7.5 mg intra-articular; 24 h; read-out: Plasma concentration of BETi1
endpoint_name: concentration at 24 h (ng/mL)
Give a bare numeral; the unit ng/mL is implied.

Entry under review: `Cn1cc(-c2cccc(O)c2Oc2ccccc2)c2cc[nH]c2c1=O` . Reported concentration at 24 h? 2.02

Data origin: patent US20250339409A1
